- subject.of.test: Nuclear receptor coactivator 3 (Homo sapiens) (UniProt Q9Y6Q9)
- Sequence (Q9Y6Q9 whole entry, looked up): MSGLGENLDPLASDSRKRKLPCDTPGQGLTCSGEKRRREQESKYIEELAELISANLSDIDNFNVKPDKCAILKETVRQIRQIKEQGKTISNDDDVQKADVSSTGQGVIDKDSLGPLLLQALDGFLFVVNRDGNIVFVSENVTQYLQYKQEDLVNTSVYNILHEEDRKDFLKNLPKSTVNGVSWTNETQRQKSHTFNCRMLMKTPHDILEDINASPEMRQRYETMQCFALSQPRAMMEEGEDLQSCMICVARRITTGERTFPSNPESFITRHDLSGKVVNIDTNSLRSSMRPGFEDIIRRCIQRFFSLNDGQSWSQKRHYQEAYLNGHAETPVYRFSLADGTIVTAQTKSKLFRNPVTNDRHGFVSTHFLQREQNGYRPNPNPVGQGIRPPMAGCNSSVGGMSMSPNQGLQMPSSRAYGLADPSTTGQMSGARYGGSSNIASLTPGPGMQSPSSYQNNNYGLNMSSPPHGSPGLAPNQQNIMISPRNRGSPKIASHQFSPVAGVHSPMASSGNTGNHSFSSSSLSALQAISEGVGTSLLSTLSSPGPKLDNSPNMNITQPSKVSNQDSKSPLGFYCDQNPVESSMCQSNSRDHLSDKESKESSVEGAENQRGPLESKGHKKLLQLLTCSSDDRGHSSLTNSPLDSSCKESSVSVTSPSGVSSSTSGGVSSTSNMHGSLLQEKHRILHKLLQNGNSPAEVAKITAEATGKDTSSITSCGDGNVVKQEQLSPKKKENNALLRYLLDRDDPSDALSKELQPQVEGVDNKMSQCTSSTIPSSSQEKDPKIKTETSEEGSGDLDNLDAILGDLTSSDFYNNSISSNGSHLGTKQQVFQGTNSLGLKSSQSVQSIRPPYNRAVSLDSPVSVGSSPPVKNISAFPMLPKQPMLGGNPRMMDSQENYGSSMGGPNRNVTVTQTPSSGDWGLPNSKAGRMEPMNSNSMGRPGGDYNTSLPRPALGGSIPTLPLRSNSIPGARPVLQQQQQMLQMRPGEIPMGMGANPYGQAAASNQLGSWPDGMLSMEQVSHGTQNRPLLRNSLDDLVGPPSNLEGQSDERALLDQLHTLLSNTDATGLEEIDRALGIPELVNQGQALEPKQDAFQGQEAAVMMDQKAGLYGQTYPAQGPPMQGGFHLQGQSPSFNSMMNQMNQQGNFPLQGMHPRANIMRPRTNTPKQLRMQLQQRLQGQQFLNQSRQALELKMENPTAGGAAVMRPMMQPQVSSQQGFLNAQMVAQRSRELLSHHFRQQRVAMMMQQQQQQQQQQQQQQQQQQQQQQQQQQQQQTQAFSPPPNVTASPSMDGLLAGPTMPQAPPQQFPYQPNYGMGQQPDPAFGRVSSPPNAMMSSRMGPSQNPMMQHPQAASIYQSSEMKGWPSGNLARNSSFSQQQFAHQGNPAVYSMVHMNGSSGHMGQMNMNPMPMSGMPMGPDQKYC
- experiment.summary: SRC3 coactivator transcriptional activity inhibitors, confirmation, cell-based, luminescence, quadruplicate (AID 588792);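 also: 0% = DMSO treated cells and 100% = gossypol at 36 µM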
- cond: HEK293 GAL4-SRC3 luciferase reporter, at 3.6 µM
The source made the active and inactive calls.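 The calls were made as follows: active = mean inhibition over 43.08%, the solvent-only control mean plus 3 SD; inactive = the rest.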
A correct response names exactly one class from class 1 = active, class 0 = inactive

Solved cases (4 shown):
>>> df
                                   compound                           subject_of_test      cat
0     Cc1ccc(C(=O)NC2c3ccccc3-c3ccccc32)cc1  Nuclear receptor coactivator 3 (Homo sapiens) (UniProt Q9Y6Q9)  class 0
1  O=C(/C=C/c1ccc(O)cc1)c1ccc(NC2=C(N3CCCCC3)C(=O)c3ccccc3C2=O)cc1  Nuclear receptor coactivator 3 (Homo sapiens) (UniProt Q9Y6Q9)  class 0
2  COC(=O)c1cc(C)nc2c1C(=O)C(=O)C=C2N1CCOCC1  Nuclear receptor coactivator 3 (Homo sapiens) (UniProt Q9Y6Q9)  class 1
3  Cc1ccc2[nH]c3nc(N/N=C/c4cccc(O)c4)nnc3c2c1  Nuclear receptor coactivator 3 (Homo sapiens) (UniProt Q9Y6Q9)  class 0

## Input Field: outcome | Entry: CCCCC(=O)NC(c1ccc(C(C)C)cc1)c1ccc2cccnc2c1O (stereo unspecified)
## Output class 1

## Input I'd appreciate the recorded outcome for CCc1c(C)nc2ncnn2c1NCCc1ccc(Cl)cc1 from this test.
## Output class 0

## Input Tell me the assay call for Cc1cc(C(=O)COC(=O)C2CC2)c(C)n1-c1ccc(F)cc1 please.
## Output class 0

## Input Call for entry Cc1ccnc2c1ccc1c(C)ccnc12 :
## Output class 1

## Input # fetch the recorded call for COc1cc2[nH]c3c(Cl)ncnc3c2cc1OC here
## Output class 0

## Input Look up the recorded call for Nc1nc(F)nc2c1ncn2[C@@H]1O[C@H](CO)[C@@H](O)[C@H]1O in this test.
## Output class 1

## Input Each compound tested received a call. Report the one for COC1=CC(=O)c2c(ccc3ncnc(N)c23)C1=O .
## Output class 1
